- Test system: SYO-1 tumor spheroids, viability % test/control
- protocol_details: Anticancer human tumor SYO-1 cell line growth inhibition
- condition_description: second compound 0.000949 µM; first compound 3 µM; hits give low values; spheroids with HUVEC and MSC
readout_name: viability, T/C (%)

{"molecule": "CNCc1ccc(-c2cc(-c3nc(-c4ccc(S(=O)(=O)C(C)C)cc4)cnc3N)on2)cc1 + COc1cc2c(cc1O)CCNC21CSC2c3c(OC(C)=O)c(C)c4c(c3C(COC1=O)N1C(O)C3Cc5cc(C)c(OC)c(O)c5C(C21)N3C)OCO4", "unit_spec": "%", "assay_result": 0.1}
{"molecule": "Cc1sc2c(c1C)C(c1ccc(Cl)cc1)=NC(CC(=O)Nc1ccc(O)cc1)c1nnc(C)n1-2 (centres undefined) + COc1cc2c(cc1O)CCNC21CSC2c3c(OC(C)=O)c(C)c4c(c3C(COC1=O)N1C(O)C3Cc5cc(C)c(OC)c(O)c5C(C21)N3C)OCO4", "unit_spec": "%", "assay_result": 0.12}
{"molecule": "O=C(c1cc(Cc2n[nH]c(=O)c3ccccc23)ccc1F)N1CCN(C(=O)C2CC2)CC1 + COc1cc2c(cc1O)CCNC21CSC2c3c(OC(C)=O)c(C)c4c(c3C(COC1=O)N1C(O)C3Cc5cc(C)c(OC)c(O)c5C(C21)N3C)OCO4", "unit_spec": "%", "assay_result": 0.68}
{"molecule": "Cn1ncnc1[C@H]1c2n[nH]c(=O)c3cc(F)cc(c23)N[C@@H]1c1ccc(F)cc1 + COc1cc2c(cc1O)CCNC21CSC2c3c(OC(C)=O)c(C)c4c(c3C(COC1=O)N1C(O)C3Cc5cc(C)c(OC)c(O)c5C(C21)N3C)OCO4", "unit_spec": "%", "assay_result": 0.57}

---

- Tested on: SYO-1 tumor spheroids, viability % test/control
- protocol_details: Anticancer human tumor SYO-1 cell line growth inhibition
- condition_description: second compound 0.0003 µM; first compound 0.1 µM; hits give low values; spheroids with HUVEC and MSC
Catalogue of molecules with associated viability, T/C

{"molecule": "CC1COCCN1c1cc(-c2ccnn2C)c2ccnc(-c3ccn[nH]3)c2n1 (stereo unspecified) + COc1cc2c(cc1O)CCNC21CSC2c3c(OC(C)=O)c(C)c4c(c3C(COC1=O)N1C(O)C3Cc5cc(C)c(OC)c(O)c5C(C21)N3C)OCO4", "viability, T/C, %": 1.22}
{"molecule": "[2H]c1nc(C)nc([2H])c1-c1cc(NC[C@@H](C)c2cccc3c(C(=O)NC)ccnc23)ncn1 + COc1cc2c(cc1O)CCNC21CSC2c3c(OC(C)=O)c(C)c4c(c3C(COC1=O)N1C(O)C3Cc5cc(C)c(OC)c(O)c5C(C21)N3C)OCO4", "viability, T/C, %": 11.6}
{"molecule": "CC(C)n1c(=O)n(C)c2cnc3cc(F)c(-c4ccc(OCCCN5CCCCC5)nc4)cc3c21 + COc1cc2c(cc1O)CCNC21CSC2c3c(OC(C)=O)c(C)c4c(c3C(COC1=O)N1C(O)C3Cc5cc(C)c(OC)c(O)c5C(C21)N3C)OCO4", "viability, T/C, %": 2.78}
{"molecule": "COc1ccc([C@@H](O)c2cc(-c3ncnc4cc(N5CCOCC5)ccc34)c(F)cc2Cl)nn1 + COc1cc2c(cc1O)CCNC21CSC2c3c(OC(C)=O)c(C)c4c(c3C(COC1=O)N1C(O)C3Cc5cc(C)c(OC)c(O)c5C(C21)N3C)OCO4", "viability, T/C, %": 9.57}
{"molecule": "Cc1cc(C)c(CNC(=O)c2cc(-c3ccc(CN4CCOCC4)cc3)cc3c2cnn3C2CCCC2)c(=O)[nH]1 + COc1cc2c(cc1O)CCNC21CSC2c3c(OC(C)=O)c(C)c4c(c3C(COC1=O)N1C(O)C3Cc5cc(C)c(OC)c(O)c5C(C21)N3C)OCO4", "viability, T/C, %": 14.3}
{"molecule": "COc1cc(C)[nH]c(=O)c1CN1CCc2c(Cl)cc(C(OC)C3COC3)c(Cl)c2C1=O (stereo unspecified) + COc1cc2c(cc1O)CCNC21CSC2c3c(OC(C)=O)c(C)c4c(c3C(COC1=O)N1C(O)C3Cc5cc(C)c(OC)c(O)c5C(C21)N3C)OCO4", "viability, T/C, %": 4}

---

- Test system: SYO-1 tumor spheroids, viability % test/control
- protocol_details: Anticancer human tumor SYO-1 cell line growth inhibition;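 further: spheroids exposed to agents for 7 days before viability read; 100% = DMSO vehicle control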
- condition_description: second compound 94.9 pM; first compound 1 µM; hits give low values; spheroids with HUVEC and MSC
- Description: Multicellular complex tumor spheroid response to DNA repair inhibitors in combination with DNA-damaging drugs This study explores the anticancer activities of DNA-damaging drugs and inhibitors of DNA damage repair, both as single agents and in combinations. […] Twenty-six patient-derived or established malignant cell lines were evaluated representing sarcoma, melanoma, small cell lung cancer (SCLC), non-small cell lung cancer (NSCLC), as well as bladder, ovarian and pancreatic cancers. […]
Catalogue of compounds with associated viability, T/C

{"compound": "CC(C)n1c(=O)n(C)c2cnc3cc(F)c(-c4ccc(OCCCN5CCCCC5)nc4)cc3c21 + COc1cc2c(cc1O)CCNC21CSC2c3c(OC(C)=O)c(C)c4c(c3C(COC1=O)N1C(O)C3Cc5cc(C)c(OC)c(O)c5C(C21)N3C)OCO4", "viability, T/C (%)": 52.4}
{"compound": "[2H]c1nc(C)nc([2H])c1-c1cc(NC[C@@H](C)c2cccc3c(C(=O)NC)ccnc23)ncn1 + COc1cc2c(cc1O)CCNC21CSC2c3c(OC(C)=O)c(C)c4c(c3C(COC1=O)N1C(O)C3Cc5cc(C)c(OC)c(O)c5C(C21)N3C)OCO4", "viability, T/C (%)": 98.8}

---

- System: SYO-1 tumor spheroids, viability % test/control
- protocol_details: Anticancer human tumor SYO-1 cell line growth inhibition; active means viability on the fitted dose curve at most 10% of control; inactive means the rest;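 further: spheroids exposed to agents for 7 days before viability read; 100% = DMSO vehicle control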
- condition_description: second compound 1 µM; first compound 0.3 µM; spheroids with HUVEC and MSC
- Method: Multicellular complex tumor spheroid response to DNA repair inhibitors in combination with DNA-damaging drugs This study explores the anticancer activities of DNA-damaging drugs and inhibitors of DNA damage repair, both as single agents and in combinations. […] Twenty-six patient-derived or established malignant cell lines were evaluated representing sarcoma, melanoma, small cell lung cancer (SCLC), non-small cell lung cancer (NSCLC), as well as bladder, ovarian and pancreatic cancers. […]
Outcomes: y for active, n for inactive

{"compound": "O=C(c1cc(Cc2n[nH]c(=O)c3ccccc23)ccc1F)N1CCN(C(=O)C2CC2)CC1 + Cn1nnc2c(C(N)=O)ncn2c1=O", "discrete_label": "n"}
{"compound": "CNCc1ccc(-c2cc(-c3nc(-c4ccc(S(=O)(=O)C(C)C)cc4)cnc3N)on2)cc1 + Cn1nnc2c(C(N)=O)ncn2c1=O", "discrete_label": "y"}
{"compound": "Cc1sc2c(c1C)C(c1ccc(Cl)cc1)=NC(CC(=O)Nc1ccc(O)cc1)c1nnc(C)n1-2 (centres undefined) + Cn1nnc2c(C(N)=O)ncn2c1=O", "discrete_label": "y"}
{"compound": "Cn1ncnc1[C@H]1c2n[nH]c(=O)c3cc(F)cc(c23)N[C@@H]1c1ccc(F)cc1 + Cn1nnc2c(C(N)=O)ncn2c1=O", "discrete_label": "y"}

---

- Tested on: SYO-1 tumor spheroids, viability % test/control
- protocol_details: Anticancer human tumor SYO-1 cell line growth inhibition; active = viability on the fitted dose curve at most 10% of control; inactive = the rest;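 further: spheroids exposed to agents for 7 days before viability read; 100% = DMSO vehicle control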
- condition_description: second compound 1 µM; first compound 10 µM; spheroids with HUVEC and MSC
Outcomes: Yes (active), No (inactive)

{"compound": "COc1cc(C)[nH]c(=O)c1CN1CCc2c(Cl)cc(C(OC)C3COC3)c(Cl)c2C1=O (stereo not drawn) + Cn1nnc2c(C(N)=O)ncn2c1=O", "discrete_label": "No"}
{"compound": "COc1ccc([C@@H](O)c2cc(-c3ncnc4cc(N5CCOCC5)ccc34)c(F)cc2Cl)nn1 + Cn1nnc2c(C(N)=O)ncn2c1=O", "discrete_label": "Yes"}
{"compound": "CC1COCCN1c1cc(-c2ccnn2C)c2ccnc(-c3ccn[nH]3)c2n1 (stereo not drawn) + Cn1nnc2c(C(N)=O)ncn2c1=O", "discrete_label": "Yes"}

---

- System: SYO-1 tumor spheroids, viability % test/control
- protocol_details: Anticancer human tumor SYO-1 cell line growth inhibition;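 further: spheroids exposed to agents for 7 days before viability read; 100% = DMSO vehicle control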
- condition_description: second compound 1 µM; first compound 0.316 µM; hits give low values; spheroids with HUVEC and MSC
Catalogue of compounds with associated viability, T/C

{"compound": "COc1ccc([C@@H](O)c2cc(-c3ncnc4cc(N5CCOCC5)ccc34)c(F)cc2Cl)nn1 + Cn1nnc2c(C(N)=O)ncn2c1=O", "viability, T/C": "112%"}
{"compound": "Cc1cc(C)c(CNC(=O)c2cc(-c3ccc(CN4CCOCC4)cc3)cc3c2cnn3C2CCCC2)c(=O)[nH]1 + Cn1nnc2c(C(N)=O)ncn2c1=O", "viability, T/C": "110%"}
{"compound": "CC(C)n1c(=O)n(C)c2cnc3cc(F)c(-c4ccc(OCCCN5CCCCC5)nc4)cc3c21 + Cn1nnc2c(C(N)=O)ncn2c1=O", "viability, T/C": "103%"}
{"compound": "[2H]c1nc(C)nc([2H])c1-c1cc(NC[C@@H](C)c2cccc3c(C(=O)NC)ccnc23)ncn1 + Cn1nnc2c(C(N)=O)ncn2c1=O", "viability, T/C": "102%"}
{"compound": "CC1COCCN1c1cc(-c2ccnn2C)c2ccnc(-c3ccn[nH]3)c2n1 (stereo unspecified) + Cn1nnc2c(C(N)=O)ncn2c1=O", "viability, T/C": "2.75%"}
{"compound": "COc1cc(C)[nH]c(=O)c1CN1CCc2c(Cl)cc(C(OC)C3COC3)c(Cl)c2C1=O (stereo unspecified) + Cn1nnc2c(C(N)=O)ncn2c1=O", "viability, T/C": "97.7%"}
